# System: cGMP-dependent 3',5'-cyclic phosphodiesterase (Homo sapiens)
# Sequence (O00408 whole entry): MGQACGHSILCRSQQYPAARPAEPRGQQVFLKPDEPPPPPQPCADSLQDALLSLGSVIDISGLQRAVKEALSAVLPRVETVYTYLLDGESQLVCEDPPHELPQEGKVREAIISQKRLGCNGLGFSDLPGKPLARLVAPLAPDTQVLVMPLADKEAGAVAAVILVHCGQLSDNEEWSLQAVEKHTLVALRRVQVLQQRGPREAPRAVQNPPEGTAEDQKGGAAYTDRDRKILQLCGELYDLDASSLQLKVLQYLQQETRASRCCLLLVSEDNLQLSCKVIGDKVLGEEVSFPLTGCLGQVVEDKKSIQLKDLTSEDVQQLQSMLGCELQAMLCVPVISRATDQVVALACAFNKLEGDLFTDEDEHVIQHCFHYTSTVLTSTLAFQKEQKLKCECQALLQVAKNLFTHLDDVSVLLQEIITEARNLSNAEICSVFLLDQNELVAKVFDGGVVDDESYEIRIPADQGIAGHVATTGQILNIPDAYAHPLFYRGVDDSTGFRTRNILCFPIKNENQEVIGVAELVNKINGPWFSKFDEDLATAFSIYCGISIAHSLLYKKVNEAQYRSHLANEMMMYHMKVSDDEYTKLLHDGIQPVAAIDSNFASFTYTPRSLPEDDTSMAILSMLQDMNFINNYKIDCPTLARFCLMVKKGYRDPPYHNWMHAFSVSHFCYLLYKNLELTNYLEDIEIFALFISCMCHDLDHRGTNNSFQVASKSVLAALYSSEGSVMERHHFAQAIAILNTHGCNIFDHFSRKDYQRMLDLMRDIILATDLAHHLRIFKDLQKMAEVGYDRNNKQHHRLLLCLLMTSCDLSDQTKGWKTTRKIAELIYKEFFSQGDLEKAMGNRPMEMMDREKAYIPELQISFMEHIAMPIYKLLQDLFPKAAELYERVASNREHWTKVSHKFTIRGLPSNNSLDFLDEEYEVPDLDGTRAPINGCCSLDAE
# Assay Comment: Inhibition of full length human recombinant PDE2A3 using [3H]-cAMP as substrate by scintillation proximity assay
Property Label: IC50

Under cGMP-dependent 3',5'-cyclic phosphodiesterase (Homo sapiens): IC50 value of COc1ccc(C2=NN(C3CCCCCC3)C(=O)[C@@H]3CC=CC[C@H]23)cc1OCCCCOc1ccc(-c2nnn[nH]2)cc1 (racemic) ?
6.31 µM

----------
# selectivity ratio annotations
# Assay Comment: Selectivity index, ratio of CC50 for human MRC5 cells to EC50 for suramin-sensitive Trypanosoma brucei brucei Squib427
# Type: toxicity, cell-based
# Conditions Used: read-out: Ratio CC50/EC50
Would you mind answering with just the numeric figure?

Previously resolved entries follow.
Compound	selectivity ratio
COc1ccc(C2=NN(C3CCCCCC3)C(=O)[C@@H]3CC=CC[C@H]23)cc1OCCCCOc1ccc(-n2ccnc2)cc1 (racemic)	40
COCCOc1cc(C2=NN(C3CCCCCC3)C(=O)[C@@H]3CC=CC[C@H]23)ccc1OC (racemic)	32

Which measured selectivity ratio value corresponds to COc1ccc(C2=NN(C3CCCCCC3)C(=O)[C@@H]3CC=CC[C@H]23)cc1OCCCCn1cnc2ncncc21 (racemic) ?
200

----------
# Assay Comment: Selectivity ratio of IC50 for Trypanosoma brucei recombinant PDEB1 to IC50 for full length human recombinant PDE4B1
Property Label: Ratio IC50
Would you mind answering with just the numeric figure?

Molecule	Property Label	Recorded Number
COc1ccc(C2=NN(C3CCCCCC3)C(=O)[C@@H]3CC=CC[C@H]23)cc1OCCCCOc1ccc(-c2nnnn2C)cc1 (racemic)	Ratio IC50	16
COc1ccc(C2=NN(C3CCCCCC3)C(=O)[C@@H]3CC=CC[C@H]23)cc1OCCCCOc1ccc(-n2ccnc2)cc1 (racemic)	Ratio IC50	63
COc1ccc(C2=NN(C3CCCCCC3)C(=O)[C@@H]3CC=CC[C@H]23)cc1OCCCCn1cnc2ncncc21 (racemic)	Ratio IC50	10
COc1ccc(C2=NN(C3CCCCCC3)C(=O)[C@@H]3CC=CC[C@H]23)cc1OCCCCOc1ccc(-c2nnn(C)n2)cc1 (racemic)	Ratio IC50	6

Which measured Ratio IC50 value corresponds to COc1ccc(C2=NN(C3CCCCCC3)C(=O)[C@@H]3CC=CC[C@H]23)cc1OC (racemic) ?
501

Same thing, different molecule: COc1ccc(C2=NN(C3CCCCCC3)C(=O)[C@@H]3CC=CC[C@H]23)cc1OCCCCOc1ccc(C(=O)O)cc1 (racemic)
1000

----------
# System: Class 1 phosphodiesterase PDEB1 (Trypanosoma brucei)
# Sequence (Q8WQX9 whole entry): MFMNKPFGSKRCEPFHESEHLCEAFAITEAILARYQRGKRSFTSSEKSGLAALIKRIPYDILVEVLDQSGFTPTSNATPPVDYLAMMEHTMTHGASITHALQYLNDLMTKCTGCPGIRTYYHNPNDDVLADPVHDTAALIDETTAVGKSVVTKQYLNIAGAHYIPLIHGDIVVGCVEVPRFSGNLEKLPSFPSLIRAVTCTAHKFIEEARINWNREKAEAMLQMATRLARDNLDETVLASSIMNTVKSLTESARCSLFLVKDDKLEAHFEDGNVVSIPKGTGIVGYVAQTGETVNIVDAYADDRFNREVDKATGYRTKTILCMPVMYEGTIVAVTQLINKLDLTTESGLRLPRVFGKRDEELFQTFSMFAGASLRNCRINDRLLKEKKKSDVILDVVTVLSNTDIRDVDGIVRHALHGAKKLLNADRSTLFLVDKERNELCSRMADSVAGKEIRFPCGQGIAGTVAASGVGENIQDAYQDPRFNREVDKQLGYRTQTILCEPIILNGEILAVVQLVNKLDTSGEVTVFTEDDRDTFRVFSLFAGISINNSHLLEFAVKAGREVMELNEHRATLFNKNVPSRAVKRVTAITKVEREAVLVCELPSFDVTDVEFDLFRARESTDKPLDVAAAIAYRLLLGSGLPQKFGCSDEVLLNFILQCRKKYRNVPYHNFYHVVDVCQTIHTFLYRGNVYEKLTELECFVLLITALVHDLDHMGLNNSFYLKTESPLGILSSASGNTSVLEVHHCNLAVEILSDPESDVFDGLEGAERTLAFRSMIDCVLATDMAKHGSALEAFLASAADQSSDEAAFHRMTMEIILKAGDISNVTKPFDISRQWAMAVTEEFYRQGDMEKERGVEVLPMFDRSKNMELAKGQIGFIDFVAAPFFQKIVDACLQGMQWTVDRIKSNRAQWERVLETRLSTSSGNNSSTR
# Assay Comment: Inhibition of recombinant Trypanosoma brucei PDEB1 using [3H]-cAMP as substrate after 15 mins by scintillation proximity assay
Property Label: IC50 (nM)
Numeric only. Scale: nM

Compound	Recorded Number
COc1ccc(C2=NN(C3CCCCCC3)C(=O)CC2)cc1OC	10000
COc1ccc(C2=NN(C3CCCCCC3)C(=O)[C@@H]3CC=CC[C@H]23)cc1OCCCCOc1ccc(-c2nnnn2C)cc1 (racemic)	10
COc1ccc(C2=NN(C3CCCCCC3)C(=O)[C@@H]3CC=CC[C@H]23)cc1OC (racemic)	316

Next up:
Under Class 1 phosphodiesterase PDEB1 (Trypanosoma brucei): IC50 value of COCCOc1cc(C2=NN(C3CCCCCC3)C(=O)[C@@H]3CC=CC[C@H]23)ccc1OC (racemic) ?
79.4

----------
# System: cGMP-specific 3',5'-cyclic phosphodiesterase (Homo sapiens)
# Assay Comment: Inhibition of full length human recombinant PDE5A1 using [3H]-cGMP as substrate by scintillation proximity assay
Property Label: IC50 (µM)
Numeric only. Scale: µM

Which measured IC50 value corresponds to COc1ccc(C2=NN(C3CCCCCC3)C(=O)[C@@H]3CC=CC[C@H]23)cc1OCCCCOc1ccc(-c2nnn[nH]2)cc1 (racemic) ?
2

----------
# System: Dual 3',5'-cyclic-AMP and -GMP phosphodiesterase 11A (Homo sapiens)
# Sequence (Q9HCR9 whole entry): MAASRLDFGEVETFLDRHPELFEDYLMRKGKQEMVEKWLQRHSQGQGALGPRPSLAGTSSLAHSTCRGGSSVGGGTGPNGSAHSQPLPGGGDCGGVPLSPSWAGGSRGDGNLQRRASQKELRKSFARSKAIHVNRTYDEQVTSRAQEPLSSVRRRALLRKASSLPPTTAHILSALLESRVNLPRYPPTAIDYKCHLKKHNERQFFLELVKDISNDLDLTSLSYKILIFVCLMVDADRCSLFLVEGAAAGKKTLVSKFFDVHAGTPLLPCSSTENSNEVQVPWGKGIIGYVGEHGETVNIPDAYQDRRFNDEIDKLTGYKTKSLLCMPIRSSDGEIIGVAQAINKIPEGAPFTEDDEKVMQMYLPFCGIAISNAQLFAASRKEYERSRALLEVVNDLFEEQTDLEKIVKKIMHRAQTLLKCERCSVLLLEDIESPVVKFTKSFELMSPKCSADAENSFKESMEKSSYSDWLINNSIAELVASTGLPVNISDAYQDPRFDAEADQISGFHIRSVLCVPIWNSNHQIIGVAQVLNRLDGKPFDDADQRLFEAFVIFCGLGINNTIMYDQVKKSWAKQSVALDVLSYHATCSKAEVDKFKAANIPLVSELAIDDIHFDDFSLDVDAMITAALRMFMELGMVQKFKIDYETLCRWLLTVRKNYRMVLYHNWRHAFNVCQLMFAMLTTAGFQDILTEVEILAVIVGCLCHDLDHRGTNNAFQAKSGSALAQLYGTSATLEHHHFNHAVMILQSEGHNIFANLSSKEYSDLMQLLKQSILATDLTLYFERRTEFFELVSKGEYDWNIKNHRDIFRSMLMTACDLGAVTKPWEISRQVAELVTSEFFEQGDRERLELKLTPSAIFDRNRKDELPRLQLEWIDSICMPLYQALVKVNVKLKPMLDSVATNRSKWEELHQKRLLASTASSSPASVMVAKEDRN
# Assay Comment: Inhibition of full length human recombinant PDE11A4 using [3H]-cAMP as substrate by scintillation proximity assay
Property Label: IC50

Which measured IC50 value corresponds to COc1ccc(C2=NN(C3CCCCCC3)C(=O)[C@@H]3CC=CC[C@H]23)cc1OCCCCOc1ccc(-c2nnn[nH]2)cc1 (racemic) ?
2 µM

----------
# System: cAMP and cAMP-inhibited cGMP 3',5'-cyclic phosphodiesterase 10A (Homo sapiens)
# Sequence (Q9Y233 whole entry): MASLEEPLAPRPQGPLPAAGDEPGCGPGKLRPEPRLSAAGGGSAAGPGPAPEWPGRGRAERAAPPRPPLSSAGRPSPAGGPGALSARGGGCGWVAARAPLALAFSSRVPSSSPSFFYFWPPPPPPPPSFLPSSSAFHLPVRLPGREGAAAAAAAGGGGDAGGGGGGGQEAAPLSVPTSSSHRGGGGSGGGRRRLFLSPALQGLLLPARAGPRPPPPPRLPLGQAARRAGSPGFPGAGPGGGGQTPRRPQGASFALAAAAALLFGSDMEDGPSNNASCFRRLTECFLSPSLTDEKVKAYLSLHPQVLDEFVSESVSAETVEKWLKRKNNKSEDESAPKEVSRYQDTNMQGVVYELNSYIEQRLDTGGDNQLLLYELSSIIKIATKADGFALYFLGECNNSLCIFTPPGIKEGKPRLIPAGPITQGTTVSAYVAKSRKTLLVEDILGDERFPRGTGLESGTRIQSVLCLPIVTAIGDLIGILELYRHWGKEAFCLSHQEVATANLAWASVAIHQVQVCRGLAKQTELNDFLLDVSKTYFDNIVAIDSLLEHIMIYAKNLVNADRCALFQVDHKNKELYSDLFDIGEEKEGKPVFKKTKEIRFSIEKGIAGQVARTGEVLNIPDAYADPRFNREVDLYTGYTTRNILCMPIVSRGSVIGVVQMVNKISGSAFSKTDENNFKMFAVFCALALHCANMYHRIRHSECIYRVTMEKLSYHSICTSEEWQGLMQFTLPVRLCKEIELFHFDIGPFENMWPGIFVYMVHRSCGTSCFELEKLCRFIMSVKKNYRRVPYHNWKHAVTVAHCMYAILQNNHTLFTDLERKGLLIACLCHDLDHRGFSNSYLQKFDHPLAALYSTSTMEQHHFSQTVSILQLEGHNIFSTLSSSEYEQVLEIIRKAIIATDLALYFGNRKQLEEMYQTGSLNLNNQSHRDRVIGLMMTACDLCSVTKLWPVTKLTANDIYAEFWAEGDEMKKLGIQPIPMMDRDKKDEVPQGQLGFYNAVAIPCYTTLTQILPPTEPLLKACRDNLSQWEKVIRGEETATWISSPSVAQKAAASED
# Assay Comment: Inhibition of full length human recombinant PDE10A using [3H]-cAMP as substrate by scintillation proximity assay
Property Label: IC50

Which measured IC50 value corresponds to COc1ccc(C2=NN(C3CCCCCC3)C(=O)[C@@H]3CC=CC[C@H]23)cc1OCCCCOc1ccc(-c2nnn[nH]2)cc1 (racemic) ?
501 nM

----------
# pIC50 annotations
# System: 3',5'-cyclic-AMP phosphodiesterase 4B (Homo sapiens, UniProt Q07343)
# Sequence (Q07343 whole entry): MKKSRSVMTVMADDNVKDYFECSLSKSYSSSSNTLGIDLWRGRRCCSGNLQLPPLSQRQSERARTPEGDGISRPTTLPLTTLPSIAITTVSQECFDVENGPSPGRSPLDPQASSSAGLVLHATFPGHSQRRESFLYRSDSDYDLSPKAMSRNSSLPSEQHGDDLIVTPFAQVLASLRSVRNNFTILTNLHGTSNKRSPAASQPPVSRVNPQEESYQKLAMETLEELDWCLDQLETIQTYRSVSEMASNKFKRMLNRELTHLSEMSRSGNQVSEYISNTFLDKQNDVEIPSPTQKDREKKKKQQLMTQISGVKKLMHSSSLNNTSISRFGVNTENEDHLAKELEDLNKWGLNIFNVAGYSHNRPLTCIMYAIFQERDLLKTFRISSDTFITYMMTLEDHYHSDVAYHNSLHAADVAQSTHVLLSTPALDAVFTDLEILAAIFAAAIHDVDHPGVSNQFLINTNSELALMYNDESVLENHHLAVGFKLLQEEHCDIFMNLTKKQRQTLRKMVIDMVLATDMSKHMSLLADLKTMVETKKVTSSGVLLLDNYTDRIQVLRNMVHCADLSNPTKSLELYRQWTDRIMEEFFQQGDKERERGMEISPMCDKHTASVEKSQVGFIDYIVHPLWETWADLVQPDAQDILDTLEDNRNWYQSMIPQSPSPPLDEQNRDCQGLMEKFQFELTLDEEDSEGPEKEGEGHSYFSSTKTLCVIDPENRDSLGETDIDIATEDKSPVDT
# Assay Comment: Inhibition of full length human recombinant PDE4B1 using [3H]-cAMP as substrate by scintillation proximity assay
Keep it numeric: pIC50 is minus log10 of the concentration in mol/L.

Compound	System	pIC50
COc1ccc(C2=NN(C3CCCCCC3)C(=O)[C@@H]3CC=CC[C@H]23)cc1OCCCCOc1ccc(-n2ccnc2)cc1 (racemic)	3',5'-cyclic-AMP phosphodiesterase 4B (Homo sapiens, UniProt Q07343)	9.70
COc1ccc(C2=NN(C3CCCCCC3)C(=O)[C@@H]3CC=CC[C@H]23)cc1OCCCCOc1ccc(C(=O)O)cc1 (racemic)	3',5'-cyclic-AMP phosphodiesterase 4B (Homo sapiens, UniProt Q07343)	9.50
COc1ccc(C2=NN(C3CCCCCC3)C(=O)[C@@H]3CC=CC[C@H]23)cc1OC (racemic)	3',5'-cyclic-AMP phosphodiesterase 4B (Homo sapiens, UniProt Q07343)	9.20
COc1ccc(C2=NN(C3CCCCCC3)C(=O)[C@@H]3CC=CC[C@H]23)cc1OCCCCOc1ccc(-c2nnn(C)n2)cc1 (racemic)	3',5'-cyclic-AMP phosphodiesterase 4B (Homo sapiens, UniProt Q07343)	9.30

Under 3',5'-cyclic-AMP phosphodiesterase 4B (Homo sapiens, UniProt Q07343): pIC50 value of COc1ccc(C2=NN(C3CCCCCC3)C(=O)[C@@H]3CC=CC[C@H]23)cc1OCCCCn1cnc2ncncc21 (racemic) ?
8.80

Same thing, different compound: COc1ccc(C2=NN(C3CCCCCC3)C(=O)[C@@H]3CC=CC[C@H]23)cc1OCCCCOc1ccc(-c2nnn[nH]2)cc1 (racemic)
9.20

Same thing, different compound: COc1ccc(C2=NN(C3CCCCCC3)C(=O)[C@@H]3CC=CC[C@H]23)cc1OCCCCOc1ccc(-c2nnnn2C)cc1 (racemic)
9.20

----------
# System: High affinity cGMP-specific 3',5'-cyclic phosphodiesterase 9A (Homo sapiens, UniProt O76083)
# Sequence (O76083 whole entry): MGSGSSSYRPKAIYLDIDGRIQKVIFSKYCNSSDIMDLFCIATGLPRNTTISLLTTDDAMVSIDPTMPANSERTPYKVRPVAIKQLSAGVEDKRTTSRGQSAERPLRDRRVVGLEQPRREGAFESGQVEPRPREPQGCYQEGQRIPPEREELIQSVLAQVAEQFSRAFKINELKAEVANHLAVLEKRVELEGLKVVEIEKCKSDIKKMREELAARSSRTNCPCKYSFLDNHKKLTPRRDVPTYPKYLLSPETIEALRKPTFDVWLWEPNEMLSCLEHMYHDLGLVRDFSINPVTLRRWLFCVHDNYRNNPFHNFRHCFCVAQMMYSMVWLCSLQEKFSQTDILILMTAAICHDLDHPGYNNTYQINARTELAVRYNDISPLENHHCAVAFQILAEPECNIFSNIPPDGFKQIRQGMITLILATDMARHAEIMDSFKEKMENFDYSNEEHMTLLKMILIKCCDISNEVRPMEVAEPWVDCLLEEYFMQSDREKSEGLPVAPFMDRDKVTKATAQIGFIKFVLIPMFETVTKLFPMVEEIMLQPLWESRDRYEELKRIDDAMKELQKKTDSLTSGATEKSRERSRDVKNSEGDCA
# Assay Comment: Inhibition of full length human recombinant PDE9A3 using [3H]-cAMP as substrate by scintillation proximity assay
pIC50: −log10 of the molar value.
Property Label: pIC50

Which measured pIC50 value corresponds to COc1ccc(C2=NN(C3CCCCCC3)C(=O)[C@@H]3CC=CC[C@H]23)cc1OCCCCOc1ccc(-c2nnn[nH]2)cc1 (racemic) ?
< 5.00
